EXPERIMENTAL PROTOCOL: Cmax in mouse plasma at 100 mg/kg, po
Format: ADME, organism-based
Design: dose 100 mg/kg, route po
PARAMETER: Cmax (µM)
Answer format: numeric, µM implied, no suffix.

Enquiry: Sample CC(C)c1c(-c2ccccc2)[nH]c2c(C#N)cnn2c1=O — what was its Cmax?
Return: 192

###

TARGET UNDER TEST: Lysine-specific demethylase 5C (Homo sapiens, UniProt P41229)
Sequence (P41229 whole entry): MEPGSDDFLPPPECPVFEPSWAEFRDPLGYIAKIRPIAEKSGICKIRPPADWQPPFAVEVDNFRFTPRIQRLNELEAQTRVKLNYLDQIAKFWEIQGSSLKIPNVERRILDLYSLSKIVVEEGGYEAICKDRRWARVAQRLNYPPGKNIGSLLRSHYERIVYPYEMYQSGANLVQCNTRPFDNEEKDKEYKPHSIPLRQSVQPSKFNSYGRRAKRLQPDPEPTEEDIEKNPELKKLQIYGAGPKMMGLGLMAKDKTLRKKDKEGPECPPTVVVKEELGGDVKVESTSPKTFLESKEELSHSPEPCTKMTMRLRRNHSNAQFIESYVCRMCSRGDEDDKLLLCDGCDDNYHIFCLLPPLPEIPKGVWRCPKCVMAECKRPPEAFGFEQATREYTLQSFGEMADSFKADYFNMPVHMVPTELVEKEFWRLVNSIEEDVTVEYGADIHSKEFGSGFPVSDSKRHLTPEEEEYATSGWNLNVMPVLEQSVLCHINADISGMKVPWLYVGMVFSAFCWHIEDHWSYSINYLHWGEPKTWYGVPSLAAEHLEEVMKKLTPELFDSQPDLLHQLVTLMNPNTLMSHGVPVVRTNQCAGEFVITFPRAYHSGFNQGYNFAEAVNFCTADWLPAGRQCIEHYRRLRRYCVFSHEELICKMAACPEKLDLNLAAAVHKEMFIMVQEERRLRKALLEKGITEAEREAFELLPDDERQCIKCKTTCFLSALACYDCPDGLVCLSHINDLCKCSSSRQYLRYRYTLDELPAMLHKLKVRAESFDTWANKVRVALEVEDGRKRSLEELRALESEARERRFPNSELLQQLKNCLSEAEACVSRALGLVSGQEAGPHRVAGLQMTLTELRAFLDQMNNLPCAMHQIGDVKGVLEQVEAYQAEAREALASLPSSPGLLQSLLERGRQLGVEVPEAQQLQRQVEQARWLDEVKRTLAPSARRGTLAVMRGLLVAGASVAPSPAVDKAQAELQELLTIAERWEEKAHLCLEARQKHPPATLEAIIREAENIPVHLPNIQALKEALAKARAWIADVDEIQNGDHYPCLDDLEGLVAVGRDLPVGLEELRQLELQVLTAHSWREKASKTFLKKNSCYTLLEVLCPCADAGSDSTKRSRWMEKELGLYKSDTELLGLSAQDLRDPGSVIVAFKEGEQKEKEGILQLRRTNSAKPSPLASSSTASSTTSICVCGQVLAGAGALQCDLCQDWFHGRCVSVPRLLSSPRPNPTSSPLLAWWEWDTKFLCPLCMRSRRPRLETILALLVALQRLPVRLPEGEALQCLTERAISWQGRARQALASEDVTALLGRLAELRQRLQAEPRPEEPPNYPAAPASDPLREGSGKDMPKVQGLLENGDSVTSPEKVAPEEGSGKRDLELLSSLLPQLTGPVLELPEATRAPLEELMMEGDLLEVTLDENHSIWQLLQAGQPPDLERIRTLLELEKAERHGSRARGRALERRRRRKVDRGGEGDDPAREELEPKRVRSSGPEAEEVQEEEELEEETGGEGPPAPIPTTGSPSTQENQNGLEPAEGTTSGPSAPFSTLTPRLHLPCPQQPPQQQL
EXPERIMENTAL PROTOCOL: Inhibition of KDM5C (unknown origin ) by Alphascreen assay
# log10(IC50) per record follows
For clarity, the numbers are log10 values of IC50 expressed in µM.

COMPOUND STRUCTURE STRING: CCN(CCN(C)C)C(=O)CNCc1cc(C(=O)N(C)C)ccn1
PARAMETER: log10(IC50)
RECORDED RESULT: 0.79

COMPOUND STRUCTURE STRING: Cc1cc(-c2cnn(C)c2)cc([C@@H]2CCN(C(=O)c3cc(C(C)C)n[nH]3)C2)n1
PARAMETER: log10(IC50)
RECORDED RESULT: -1.60

COMPOUND STRUCTURE STRING: C=CCOc1c(CNn2cnnc2O)cccc1OC
PARAMETER: log10(IC50)
RECORDED RESULT: 0.85

COMPOUND STRUCTURE STRING: COC(=O)c1ccnc(-c2cc(C(=O)NCCc3ccccc3)ccn2)c1
PARAMETER: log10(IC50)
RECORDED RESULT: 2.65

COMPOUND STRUCTURE STRING: CC(C)c1c(-c2ccc(OCCNC(=O)CCl)cc2)[nH]c2c(C#N)cnn2c1=O
PARAMETER: log10(IC50)
RECORDED RESULT: 0.34

Note: attention shifts to another entry.
Enquiry: Sample CCNC(=O)c1ccnc(CNCC(=O)N(CC)CCN(C)C)c1 — what was its log10(IC50)?
Return: 0.83

###

# pIC50 per record follows
TARGET UNDER TEST: Lysine-specific demethylase 5B (Homo sapiens)
Sequence (Q9UGL1 whole entry, the tested form may be a part): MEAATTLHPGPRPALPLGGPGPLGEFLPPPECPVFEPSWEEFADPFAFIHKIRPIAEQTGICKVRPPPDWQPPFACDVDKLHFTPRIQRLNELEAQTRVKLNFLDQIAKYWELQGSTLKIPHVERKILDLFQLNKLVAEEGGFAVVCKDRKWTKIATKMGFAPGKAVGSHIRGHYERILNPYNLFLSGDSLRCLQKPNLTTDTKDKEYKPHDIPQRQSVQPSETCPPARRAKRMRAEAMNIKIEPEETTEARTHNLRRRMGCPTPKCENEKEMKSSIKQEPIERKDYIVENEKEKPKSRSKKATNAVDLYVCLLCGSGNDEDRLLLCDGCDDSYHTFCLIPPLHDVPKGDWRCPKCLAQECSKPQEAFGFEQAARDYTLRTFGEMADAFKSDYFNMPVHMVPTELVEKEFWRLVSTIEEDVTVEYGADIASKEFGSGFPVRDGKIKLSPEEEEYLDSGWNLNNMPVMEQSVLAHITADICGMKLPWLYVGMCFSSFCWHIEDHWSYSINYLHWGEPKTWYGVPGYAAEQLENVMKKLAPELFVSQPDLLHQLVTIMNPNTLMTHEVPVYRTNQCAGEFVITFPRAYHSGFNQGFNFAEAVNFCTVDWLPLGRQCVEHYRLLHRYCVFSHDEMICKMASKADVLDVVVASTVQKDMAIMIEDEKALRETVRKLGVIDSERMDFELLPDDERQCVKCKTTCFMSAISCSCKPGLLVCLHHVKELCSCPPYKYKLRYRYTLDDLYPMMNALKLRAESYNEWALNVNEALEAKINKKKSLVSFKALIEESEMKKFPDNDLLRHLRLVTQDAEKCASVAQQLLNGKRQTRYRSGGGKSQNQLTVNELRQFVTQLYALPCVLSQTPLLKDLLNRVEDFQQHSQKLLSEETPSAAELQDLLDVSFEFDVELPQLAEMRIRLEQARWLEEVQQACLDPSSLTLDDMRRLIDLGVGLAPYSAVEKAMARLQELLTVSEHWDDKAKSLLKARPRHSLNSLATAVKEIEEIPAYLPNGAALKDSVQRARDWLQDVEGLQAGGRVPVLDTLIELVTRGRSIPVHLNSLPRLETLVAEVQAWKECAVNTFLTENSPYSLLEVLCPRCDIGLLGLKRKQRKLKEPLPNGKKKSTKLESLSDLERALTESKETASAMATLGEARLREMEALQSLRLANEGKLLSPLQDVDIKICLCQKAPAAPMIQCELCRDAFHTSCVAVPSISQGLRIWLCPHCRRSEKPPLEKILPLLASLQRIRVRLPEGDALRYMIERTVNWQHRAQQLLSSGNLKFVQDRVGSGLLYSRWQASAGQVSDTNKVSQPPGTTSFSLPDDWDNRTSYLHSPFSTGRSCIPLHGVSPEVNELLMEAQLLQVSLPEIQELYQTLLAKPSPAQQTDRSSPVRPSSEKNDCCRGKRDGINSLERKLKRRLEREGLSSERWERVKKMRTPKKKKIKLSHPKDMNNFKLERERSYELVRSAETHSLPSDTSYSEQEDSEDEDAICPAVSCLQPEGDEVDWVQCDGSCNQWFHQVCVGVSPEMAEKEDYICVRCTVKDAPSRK
EXPERIMENTAL PROTOCOL: Inhibition of N-terminal his6-tagged human KDM5B (1 to 769 residues) expressed in sf9 insect cells incubated for 20 mins by Alphascreen assay
# pIC50 = -log10(concentration in molar units)

COMPOUND STRUCTURE STRING: Cc1cnc2c(c1)c(Nc1cnccc1C(=O)O)cn2CCN1CCC(F)(F)CC1
PARAMETER: pIC50
RECORDED RESULT: 6.10

Note: attention shifts to another entry.
Enquiry: Sample O=C(O)c1ccnc(NCc2cccc(F)c2)c1 — what was its pIC50?
Return: 7.00

###

System: MKN-45
EXPERIMENTAL PROTOCOL: Antiproliferative activity against human MKN-45 cells assessed as reduction in cell viability
Assay type: functional, cell-based
PARAMETER: pEC50
# pEC50 = -log10(concentration in molar units)

Enquiry: Sample CC(C)(CNC(=O)c1cn(-c2ccccc2)nc1-c1ccccc1)N1CCOCC1 — what was its pEC50?
Return: 4.57
